Please go through the items and note down their EC50.
system: Wild Type HBV; experiment: HBV replicative intermediates in vitro, wild type HBV; conditions: Hepatitis B virus, read-out: EC50 for intracellular HBV replicative intermediates (HBV R.I.), Wild Type
Report as a plain number; the unit µM is understood.

// fetch Wild Type HBV EC50 for CCCCCCCCCCCCCCCCOCCCOP(=O)(O)CC/C=C\Cn1cnc2c(N)ncnc21 9.2

// fetch Wild Type HBV EC50 for CCCCCCCCCCCCCCCCOCCCOP(=O)(O)CC/C=C\Cn1cnc2c(=O)[nH]c(N)nc21 8.8

* * *

assay: in vitro
recorded endpoint: CC50

# lookup: CC50 of CCCCCCCC/C=C\CCCCCCCCOCCOP(=O)(O)CC/C=C\Cn1cnc2c(=O)[nH]c(N)nc21 [OLE-PPen-G] > 1000 nM

* * *

test system: VZV; assay: VZV CPE assay in HFF cells; format: cell-based; conditions: Human alphaherpesvirus 3
pEC50: −log10 of the molar value.
recorded endpoint: pEC50

# lookup: pEC50 of CCCCCCCCCCCCCCCCOCCCOP(=O)(O)CC/C=C\Cn1cnc2c(=O)[nH]c(N)nc21 6.82

# lookup: pEC50 of Cc1cn(CC=CCCP(=O)(O)O)c(=O)[nH]c1=O < 3.52

# lookup: pEC50 of CCCCCCCCCCCCCCCCOCCCOP(=O)(O)CC/C=C\Cn1cnc2c(N)ncnc21 < 4.22

# lookup: pEC50 of Nc1ccn(CC=CCCP(=O)(O)O)c(=O)n1 < 4.22

# lookup: pEC50 of O=c1ccn(CC=CCCP(=O)(O)O)c(=O)[nH]1 < 3.52

# lookup: pEC50 of Nc1nc2c(ncn2CC=CCCP(=O)(O)O)c(=O)[nH]1 5.14

# lookup: pEC50 of Nc1ncnc2c1ncn2CC=CCCP(=O)(O)O < 3.52
